# System: A549
# assay comment: Antiproliferative activity against human A549 cells assessed as reduction in cell viability after 48 hrs by MTT assay
# Format: functional, cell-based
# measurement parameters: A549, 48 h
pIC50: −log10 of the molar value.
Below is a list of entries, each paired with its recorded pIC50 value.
measured endpoint: pIC50

>>> reported_result("CC(C)=CCC[C@]1(C)/C=C/[C@@H](OC(=O)C=C(C)C)[C@](C)(O)/C=C/C(=O)/C(CF)=C\\C1")
"6.21 to 6.85"
>>> reported_result("COCO[C@@H]1/C=C/[C@@](C)(CCC=C(C)C)C/C=C(/CO)C(=O)/C=C/[C@@]1(C)O")
"< 4.40"
>>> reported_result("CC(C)=CCC[C@]1(C)/C=C/[C@@H](OC(=O)C=C(C)C)[C@](C)(O)/C=C/C(=O)/C(C(=O)O)=C\\C1")
"< 5.00"
>>> reported_result("CC(=O)OC/C1=C/C[C@](C)(CCC=C(C)C)/C=C/[C@@H](OC(=O)C=C(C)C)[C@](C)(O)/C=C/C1=O")
"5.33 to 5.53"

* * *

# Test system: MCF7
# assay comment: Antiproliferative activity against human MCF7 cells assessed as reduction in cell viability after 48 hrs by MTT assay
# Assay type: functional, cell-based
# measurement parameters: MCF7, 48 h
# label = bin(measured IC50), where bins are category 1: < 5 µM; category 2: ≥ 5 µM and < 20 µM; category 3: ≥ 20 µM

>>> class_name("CO[C@H]1/C=C/[C@@](C)(O)[C@H](OC(=O)C=C(C)C)/C=C/[C@@](C)(CCC=C(C)C)C/C=C\\1CO")
"category 2"
>>> class_name("CC(C)=CCC[C@]1(C)/C=C/[C@@H](OC(=O)C=C(C)C)[C@](C)(O)/C=C/[C@H](O)/C(CO)=C\\C1")
"category 3"
>>> class_name("CC(=O)O[C@@H]1/C=C/[C@@](C)(CCC=C(C)C)C/C=C(/CO)C(=O)/C=C/[C@@]1(C)O")
"category 2"
>>> class_name("CC(C)=CCC[C@]1(C)/C=C/[C@@H](OC(=O)C=C(C)C)[C@](C)(O)/C=C/C(=O)/C(C(=O)N(C(C)C)C(C)C)=C\\C1")
"category 2"
>>> class_name("CC(C)=CCC[C@]1(C)/C=C/[C@@H](OC(=O)C=C(C)C)[C@](C)(O)CCC(=O)/C(CO)=C\\C1")
"category 3"
>>> class_name("CC(=O)OC/C1=C/C[C@](C)(CCC=C(C)C)/C=C/[C@@H](OC(=O)C=C(C)C)[C@](C)(OC(C)=O)/C=C/C1=O")
"category 1"
>>> class_name("CC(C)=CCC[C@](C)(/C=C/[C@@H](OC(=O)C=C(C)C)[C@](C)(O)/C=C/C(=O)/C=C/N(C)C)CC=O")
"category 2"
>>> class_name("CC(C)=CCC[C@]1(C)/C=C/[C@@H](OC(=O)C=C(C)C)[C@](C)(O)/C=C/C(=O)/C(C(=O)O)=C\\C1")
"category 2"
>>> class_name("CCN(CC)C/C1=C/C[C@](C)(CCC=C(C)C)/C=C/[C@@H](OC(=O)C=C(C)C)[C@](C)(O)/C=C/C1=O")
"category 1"

* * *

Reported pIC50 values for the following molecules.
# Tested on: SMMC-7721
# assay comment: Antiproliferative activity against human SMMC7721 cells assessed as reduction in cell viability after 48 hrs by MTT assay
# Format: functional, cell-based
# measurement parameters: SMMC-7721, 48 h
pIC50: −log10 of the molar value.
measured endpoint: pIC50

>>> reported_result("CC(C)=CCC[C@](C)(/C=C/[C@@H](OC(=O)C=C(C)C)[C@](C)(O)/C=C/C(=O)/C=C/N1CCN(C)CC1)CC=O")
5.51
>>> reported_result("CC(C)=CCC[C@]1(C)/C=C/[C@@H](OC(=O)C=C(C)C)[C@](C)(O)/C=C/C(O)/C(C=O)=C\\C1 (some centres not stated)")
6.14
>>> reported_result("CC(C)=CCC[C@](C)(/C=C/[C@@H](OC(=O)C=C(C)C)[C@](C)(O)/C=C/C(=O)/C=C/N1CCOCC1)CC=O")
5.13
>>> reported_result("CC(C)=CCC[C@]1(C)/C=C/[C@@H](OC(=O)C=C(C)C)[C@](C)(O)/C=C/C(=O)/C(C(=O)N2CCN(C)CC2)=C\\C1")
4.93
>>> reported_result("C=C1/C=C/C(=O)/C(CO)=C\\C[C@](C)(CCC=C(C)C)/C=C/[C@H]1OC(=O)C=C(C)C")
5.37
>>> reported_result("COCOC/C1=C/C[C@](C)(CCC=C(C)C)/C=C/[C@@H](OC(=O)C=C(C)C)[C@](C)(O)/C=C/C1=O")
5.49
>>> reported_result("CC[Si](CC)(CC)OC/C1=C/C[C@](C)(CCC=C(C)C)/C=C/[C@@H](OC(=O)C=C(C)C)[C@](C)(O)/C=C/C1=O")
5.46
>>> reported_result("CC(C)=CCC[C@]1(C)/C=C/[C@@H](OC(=O)C=C(C)C)[C@](C)(O)/C=C/C(=O)/C(CN2CCCC2)=C\\C1")
6.85
>>> reported_result("CC(C)=CCC[C@]1(C)/C=C/[C@@H](OC(=O)C=C(C)C)[C@](C)(O)/C=C/C(=O)/C(CN=[N+]=[N-])=C\\C1")
5.51
>>> reported_result("CC(C)=CCC[C@]1(C)/C=C/[C@@H](OC(=O)C(C)C)[C@](C)(O)/C=C/C(=O)/C(CO)=C\\C1")
4.98

From: ChEMBL document CHEMBL4024747
